pKd by entry:
TESTED ON: T1, EsCas13d, nuclease-dead (Eubacterium siraeum, UniProt B0MS50, R295A;H300A;R849A;H854A)
T1 sequence: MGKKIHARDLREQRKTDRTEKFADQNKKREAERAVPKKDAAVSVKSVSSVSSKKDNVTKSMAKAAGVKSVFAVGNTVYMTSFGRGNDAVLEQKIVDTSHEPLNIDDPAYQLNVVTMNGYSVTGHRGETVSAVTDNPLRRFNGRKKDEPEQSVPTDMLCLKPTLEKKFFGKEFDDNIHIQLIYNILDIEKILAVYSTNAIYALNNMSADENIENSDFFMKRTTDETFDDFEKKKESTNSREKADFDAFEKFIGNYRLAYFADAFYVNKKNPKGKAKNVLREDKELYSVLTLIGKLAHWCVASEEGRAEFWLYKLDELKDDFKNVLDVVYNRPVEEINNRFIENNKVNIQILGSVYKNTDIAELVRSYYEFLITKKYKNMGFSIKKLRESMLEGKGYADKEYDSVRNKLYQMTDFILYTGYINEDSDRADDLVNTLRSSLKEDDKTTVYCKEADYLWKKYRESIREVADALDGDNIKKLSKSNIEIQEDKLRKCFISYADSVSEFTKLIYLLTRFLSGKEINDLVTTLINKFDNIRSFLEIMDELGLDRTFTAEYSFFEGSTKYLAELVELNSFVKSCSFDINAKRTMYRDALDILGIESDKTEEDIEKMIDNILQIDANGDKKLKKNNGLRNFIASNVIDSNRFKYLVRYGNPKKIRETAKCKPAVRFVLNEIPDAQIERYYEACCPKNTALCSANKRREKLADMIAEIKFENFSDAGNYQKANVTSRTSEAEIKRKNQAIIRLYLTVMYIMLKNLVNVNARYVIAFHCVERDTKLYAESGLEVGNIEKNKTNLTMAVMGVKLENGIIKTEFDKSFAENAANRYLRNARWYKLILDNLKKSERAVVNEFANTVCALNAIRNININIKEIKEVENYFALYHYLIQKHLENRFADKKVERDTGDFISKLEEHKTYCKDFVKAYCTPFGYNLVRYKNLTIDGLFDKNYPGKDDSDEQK
ASSAY NOTES: crRNA (strand 1, pre-loaded); Mg2+; 40 mM Tris-HCl pH 7.5, 150 mM NaCl, 6 mM MgCl2, 1 mM DTT, 0.1% Tween-20, 0.2 mg/ml BSA; 25 C; 10 min per concentration, then washed
TEST PARAMETERS: tags: His6-TwinStrep-SUMO cleaved; N-terminal SNAP kept (SNAP-Surface 488); label: 3' end held by stalled T7 RNA polymerase
pKd: −log10 of the molar value.

BINDER	pKd
target 2 MT 5'PFS UUU 3'PFS AAA (mixed) RNA 1: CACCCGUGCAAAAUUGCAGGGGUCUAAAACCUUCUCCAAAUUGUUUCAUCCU RNA 2: GGGAAUGGAUCCACAUCUACGAAUUCUUUAGGAUGAAACAAUUUGGAGAAGAAAAGAUCGGAAGAGCACACGU	8.05
target 1 A20U,C22U (mixed) RNA 1: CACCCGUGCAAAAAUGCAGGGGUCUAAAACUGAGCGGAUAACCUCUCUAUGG RNA 2: GGGAAUGGAUCCACAUCUACGAAUUCGUAUCUUAGAGAGGUUAUCCGCUCACCGAGAUCGGAAGAGCACACGU	7.35
target 1 C2A,G12A (mixed) RNA 1: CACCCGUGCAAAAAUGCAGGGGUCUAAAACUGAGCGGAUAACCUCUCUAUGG RNA 2: GGGAAUGGAUCCACAUCUACGAAUUCGUACCAUAGAGAGAUUAUCCGCUAACCGAGAUCGGAAGAGCACACGU	8.34
target 1 MT 5'PFS GUU 3'PFS AGU (mixed) RNA 1: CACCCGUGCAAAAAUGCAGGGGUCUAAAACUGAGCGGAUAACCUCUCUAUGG RNA 2: GGGAAUGGAUCCACAUCUACGAAUUCGUUCCAUAGAGAGGUUAUCCGCUCAAGUAGAUCGGAAGAGCACACGU	7.66
